Numbers sourced from patent US7435837B2.

target or system: human 5-hydroxytryptamine-2C (h5-HT2C) receptor (Homo sapiens, UniProt P28335)
Construct: expressed in transfected cells; host or cells: CHO (Chinese Hamster Ovary) cells; membranes
Sequence (P28335 33-458): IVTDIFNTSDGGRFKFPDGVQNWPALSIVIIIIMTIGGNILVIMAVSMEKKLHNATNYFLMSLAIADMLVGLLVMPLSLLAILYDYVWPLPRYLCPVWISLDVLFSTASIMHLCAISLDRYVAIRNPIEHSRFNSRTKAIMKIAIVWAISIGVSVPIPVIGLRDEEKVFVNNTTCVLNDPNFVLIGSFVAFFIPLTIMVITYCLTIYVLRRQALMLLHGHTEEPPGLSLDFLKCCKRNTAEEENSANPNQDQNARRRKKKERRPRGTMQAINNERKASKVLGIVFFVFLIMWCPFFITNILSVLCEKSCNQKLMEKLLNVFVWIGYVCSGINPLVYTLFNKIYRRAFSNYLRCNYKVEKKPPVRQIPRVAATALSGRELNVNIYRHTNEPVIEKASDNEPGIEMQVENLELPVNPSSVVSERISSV
protocol: [125I]DOI binding to membranes of CHO cells expressing the human 5-HT2C receptor
measurement parameters: [125I]DOI radioligand, CHO cell membranes, room temperature 60 min; read-out: 5-HT2C Affinity Ki
Listed here are compounds together with their documented log10 Ki.
Short version: log10 scale, Ki, nM.

## Input Requested field: log10 Ki. Item: NCC1Cc2cc(F)cc(-c3c(Cl)cccc3Cl)c2O1 (racemic) [Example 230]
## Output -0.22

## Input What does the record list as log10 Ki for CNCC1Cc2cc(OC)cc(-c3cccc(Cl)c3Cl)c2O1 (racemic) ?
## Output 1.61

## Input State the recorded log10 Ki for this entry: CCNCC1Cc2cccc(-c3c(Cl)cccc3Cl)c2O1 (racemic)
## Output 0.26

## Input Can you share its log10 Ki? I mean this compound: NCC1Cc2cccc(-c3cccc(C(F)(F)F)c3)c2O1 (racemic) [Example 69]
## Output 1.98

## Input Which log10 Ki reading was recorded for the compound Cc1ccc(-c2cc(-c3ccccc3)cc3c2OC(CN)C3)cc1 (racemic) ?
## Output 2.93

## Input Entry under review: CNCC1Cc2cc(C(F)(F)F)cc(-c3cccc(F)c3)c2O1 (racemic) . Reported log10 Ki?
## Output 2.57

## Input I have this compound here, Cc1cccc(-c2cccc3c2OC(CN)C3)c1 (racemic) [Example 41] , and I need its recorded log10 Ki.
## Output 1.40

## Input I have this compound here, NCC1Cc2cccc(Cc3ccccc3)c2O1 (racemic) [Example 15] , and I need its recorded log10 Ki.
## Output 2.35

## Input Entry under review: Cc1ccccc1-c1cccc2c1CC(CN)O2 (single isomer, unassigned; (+)) [Example 5] . Reported log10 Ki?
## Output 0.95

----------
target or system: human 5-hydroxytryptamine-2C (h5-HT2C) receptor (Homo sapiens)
Construct: expressed in transfected cells; host or cells: CHO (Chinese Hamster Ovary) cells; membranes
protocol: [125I]DOI binding to membranes of CHO cells expressing the human 5-HT2C receptor
measurement parameters: [125I]DOI radioligand, CHO cell membranes, room temperature 60 min; read-out: 5-HT2C Affinity Ki
pKi: −log10 of the molar value.
Think of 9 as a floor: if pKi stands on it or above, it is TRUE; beneath it, FALSE.

# compound, group
measured = [
    ("NCC1Cc2cccc(-c3cc(Cl)cc(Cl)c3)c2O1 (racemic) [Example 35]", "FALSE"),
    ("COc1cccc(-c2cccc3c2OC(CN)C3)c1 (single isomer, unassigned; (+)) [Example 133]", "FALSE"),
    ("Cc1ccccc1-c1c(F)ccc2c1OC(CN)C2 (racemic) [Example 395]", "TRUE"),
    ("NCC1Cc2cc(Cl)cc(-c3ccccc3)c2O1 (single isomer, unassigned; (-)) [Example 86]", "FALSE"),
    ("NCC1Cc2cc(Cl)cc(-c3ccoc3)c2O1 (racemic) [Example 243]", "TRUE"),
]

We next turn to a different compound, shown below.
## Input Entry Cc1ccc(-c2cc(F)cc3c2OC(CN)C3)cc1 (racemic) [Example 201] : is its pKi no less than 9?
## Output FALSE
